Entry source: patent US8487102B2

study system: Recombinant human NK3 (hNK3) receptor (Homo sapiens, UniProt P29371)
Construct: membrane preparations of the recombinant receptor
Sequence (P29371 1-465): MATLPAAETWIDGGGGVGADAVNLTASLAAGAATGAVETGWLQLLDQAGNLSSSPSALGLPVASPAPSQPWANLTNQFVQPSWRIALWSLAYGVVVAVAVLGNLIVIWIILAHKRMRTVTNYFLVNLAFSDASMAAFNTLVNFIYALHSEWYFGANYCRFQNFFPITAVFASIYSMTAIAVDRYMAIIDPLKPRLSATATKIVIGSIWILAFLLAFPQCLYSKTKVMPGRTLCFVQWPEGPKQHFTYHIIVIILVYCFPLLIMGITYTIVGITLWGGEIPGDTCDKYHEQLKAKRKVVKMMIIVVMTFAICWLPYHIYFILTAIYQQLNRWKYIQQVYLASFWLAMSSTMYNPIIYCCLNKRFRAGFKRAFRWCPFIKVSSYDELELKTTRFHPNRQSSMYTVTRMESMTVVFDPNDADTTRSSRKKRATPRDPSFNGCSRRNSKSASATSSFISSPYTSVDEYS
assay text: NK3 receptor binding assay, [3H]SR142801 displacement
particulars: hNK3 receptor membranes, [3H]SR142801 0.3 nM
property measured: Ki (nM)

Please review the entries below; each comes with its answer.
{"chemical structure": "CCn1ncc2c(-c3ccc(OC)cc3C)c(N(C)C(=O)C(C)(C)c3cc(C(F)(F)F)cc(C(F)(F)F)c3)cnc21", "study system": "Recombinant human NK3 (hNK3) receptor (Homo sapiens, UniProt P29371)", "uom": "nM", "number": 373}
{"chemical structure": "CC(=O)n1ncc2c(-c3ccc(F)cc3C)c(N(C)C(=O)C(C)(C)c3cc(C(F)(F)F)cc(C(F)(F)F)c3)cnc21", "study system": "Recombinant human NK3 (hNK3) receptor (Homo sapiens, UniProt P29371)", "uom": "nM", "number": 12.9}
{"chemical structure": "COCC(=O)n1ncc2c(-c3ccc(F)cc3C)c(N(C)C(=O)C(C)(C)c3cc(C(F)(F)F)cc(C(F)(F)F)c3)cnc21", "study system": "Recombinant human NK3 (hNK3) receptor (Homo sapiens, UniProt P29371)", "uom": "nM", "number": 28.4}
{"chemical structure": "CCn1ncc2c(-c3cscc3C)c(N(C)C(=O)C(C)(C)c3cc(C(F)(F)F)cc(C(F)(F)F)c3)cnc21", "study system": "Recombinant human NK3 (hNK3) receptor (Homo sapiens, UniProt P29371)", "uom": "nM", "number": 1.2}
{"chemical structure": "Cc1cc(F)ccc1-c1c(N(C)C(=O)C(C)(C)c2cc(C(F)(F)F)cc(C(F)(F)F)c2)cnc2c1cnn2CC(F)F", "study system": "Recombinant human NK3 (hNK3) receptor (Homo sapiens, UniProt P29371)", "uom": "nM", "number": 6.8}

(1) Cc1cc(F)ccc1-c1c(N(C)C(=O)C(C)(C)c2cc(C(F)(F)F)cc(C(F)(F)F)c2)cnc2c1cnn2S(=O)(=O)N(C)C
(2) Cc1cc(F)ccc1-c1c(N(C)C(=O)C(C)(C)c2cc(C(F)(F)F)cc(C(F)(F)F)c2)cnc2c1cnn2C
-- ask // returns 1 or 2 , whichever has the lower Ki I would appreciate it if you answered with the label of your choice.
-- reply 2
(2: 18.9 nM, 1: 78.5 nM)

(I) Cc1cc(F)ccc1-c1c(N(C)C(=O)C(C)(C)c2cc(C(F)(F)F)cc(C(F)(F)F)c2)cnc2c1cnn2S(C)(=O)=O
(II) Cc1cc(F)ccc1-c1c(N(C)C(=O)C(C)(C)c2cc(C(F)(F)F)cc(C(F)(F)F)c2)cnc2c1cnn2CC(=O)N(C)C
-- ask // returns I or II , whichever has the lower Ki I would appreciate it if you answered with the label of your choice.
-- reply I
(I: 15.1 nM, II: 93.9 nM)

(A) CCn1ncc2c(-c3cccc(Cl)c3Cl)c(N(C)C(=O)C(C)(C)c3cc(C(F)(F)F)cc(C(F)(F)F)c3)cnc21
(B) CCn1ncc2c(-c3ccccc3CO)c(N(C)C(=O)C(C)(C)c3cc(C(F)(F)F)cc(C(F)(F)F)c3)cnc21
(C) CCn1ncc2c(-c3ccc(F)cc3C)c(N(C)C(=O)C(C)(C)c3cc(C(F)(F)F)cc(C(F)(F)F)c3)cnc21
(D) CCn1ncc2c(-c3ccc(F)cc3C)c(N(C)C(=O)C(C)(C)c3cccc(C(F)(F)F)c3)cnc21
-- ask Sort the compounds on Ki; start with the lowest figure. Labels, ranked as asked.
-- reply C, A, B, D
(C: 25.7 nM, A: 45.3 nM, B: 209 nM, D: 875 nM)

----------
study system: human NK1 receptor (Homo sapiens)
Sequence (P25103 whole entry): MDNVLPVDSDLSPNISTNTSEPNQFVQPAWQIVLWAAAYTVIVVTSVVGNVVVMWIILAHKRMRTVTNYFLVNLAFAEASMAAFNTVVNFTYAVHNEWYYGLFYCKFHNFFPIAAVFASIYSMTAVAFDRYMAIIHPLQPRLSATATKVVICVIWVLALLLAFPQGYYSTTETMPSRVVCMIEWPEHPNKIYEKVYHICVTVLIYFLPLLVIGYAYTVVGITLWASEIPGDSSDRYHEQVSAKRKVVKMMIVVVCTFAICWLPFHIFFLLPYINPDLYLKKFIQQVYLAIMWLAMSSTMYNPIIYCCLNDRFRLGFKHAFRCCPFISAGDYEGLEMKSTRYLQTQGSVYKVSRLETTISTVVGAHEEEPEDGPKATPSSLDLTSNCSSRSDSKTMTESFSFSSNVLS
assay text: NK1 receptor binding assay, [3H]substance P displacement
particulars: human NK1 receptors in CHO cells, [3H]substance P 0.6 nM
pKi: −log10 of the molar value.
property measured: pKi

Please review the entries below; each comes with its answer.
{"molecule": "CCn1ncc2c(-c3cccc(F)c3Cl)c(N(C)C(=O)C(C)(C)c3cc(C(F)(F)F)cc(C(F)(F)F)c3)cnc21 [Example 14]", "pKi": 8.80}
{"molecule": "CCn1ncc2c(-c3cccnc3C)c(N(C)C(=O)C(C)(C)c3cc(C(F)(F)F)cc(C(F)(F)F)c3)cnc21 [Example 25]", "pKi": 6.28}
{"molecule": "Cc1cc(F)ccc1-c1c(N(C)C(=O)C(C)(C)c2cc(C(F)(F)F)cc(C(F)(F)F)c2)cnc2c1cnn2Cc1ccccc1 [Example 11]", "pKi": 8.89}
{"molecule": "CCn1ncc2c(-c3cscc3C)c(N(C)C(=O)C(C)(C)c3cc(C(F)(F)F)cc(C(F)(F)F)c3)cnc21 [Example 21]", "pKi": 7.04}

(I) Cc1cc(F)ccc1-c1c(N(C)C(=O)C(C)(C)c2cc(C(F)(F)F)cc(C(F)(F)F)c2)cnc2c1cnn2C(=O)C1CC1 [Example 33]
(II) CCn1ncc2c(-c3cc(F)ccc3C)c(N(C)C(=O)C(C)(C)c3cc(C(F)(F)F)cc(C(F)(F)F)c3)cnc21 [Example 13]
-- ask Endpoint returns the identifier whose pKi is numerically larger, either I or II . I would appreciate it if you answered with the label of your choice.
-- reply I

----------
study system: Recombinant human NK3 (hNK3) receptor (Homo sapiens, UniProt P29371)
Construct: membrane preparations of the recombinant receptor
assay text: NK3 receptor binding assay, [3H]SR142801 displacement
particulars: hNK3 receptor membranes, [3H]SR142801 0.3 nM
property measured: Ki (nM)

{"compound": "CCn1ncc2c(-c3ccc(Cl)c(Cl)c3)c(N(C)C(=O)C(C)(C)c3cc(C(F)(F)F)cc(C(F)(F)F)c3)cnc21 [Example 4]", "uom": "nM", "number": 86.8}
{"compound": "CCn1ncc2c(-c3ccc(F)cc3C)c(N(C)C(=O)C(C)(C)c3cc(F)cc(C(F)(F)F)c3)cnc21 [Example 26]", "uom": "nM", "number": 94.2}
{"compound": "Cc1cc(F)ccc1-c1c(N(C)C(=O)C(C)(C)c2cc(C(F)(F)F)cc(C(F)(F)F)c2)cnc2c1cnn2Cc1ccccc1 [Example 11]", "uom": "nM", "number": 77}
